# SYSTEM_NAME: human CD96v2 expressed on cells (human) (UniProt P40200)
# EXPERIMENT_SUMMARY: competition flow cytometry, inhibition of CD155-Fc-AF647 binding to CHO cells expressing human CD96v2

>  <BINDER>
42Y073-86F04-3 (antibody, V domains shown) VH: QVQLVQSGAEVKKPGSSVKVSCKASGGTFSYNAISWVRQAPGQGLEWMGGIIPIMGTARYAQKFQGRVTITADESTSTAYMELSSLRSEDTAVYYCARLLGESGMDVWGQGTTVTVSS VL: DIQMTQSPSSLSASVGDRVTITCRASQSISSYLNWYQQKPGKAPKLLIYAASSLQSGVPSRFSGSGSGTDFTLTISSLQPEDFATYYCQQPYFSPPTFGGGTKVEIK

>  <IC50, nM>
0.31

$$$$
>  <BINDER>
42Y073-86F04-18 (antibody, V domains shown) VH: QVQLVQSGAEVKKPGSSVKVSCKASGGTFSSRAISWVRQAPGQGLEWMGGIIPIMGTARYAQKFQGRVTITADESTSTAYMELSSLRSEDTAVYYCARLLGESGMDVWGQGTTVTVSS VL: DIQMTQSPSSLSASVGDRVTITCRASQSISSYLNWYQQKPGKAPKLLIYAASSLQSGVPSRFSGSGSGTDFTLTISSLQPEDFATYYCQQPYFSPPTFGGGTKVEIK

>  <IC50, nM>
0.59

$$$$
